Catalogue of compounds with associated pIC50
# Target under test: Na^+/H^+-Austauscher (Homo sapiens)
# Construct: HT-29-Zellen werden bei 37°C, 5% CO2 in Wachstumsmedium inkubiert; endogenous in cells
# Sequence (P19634 whole entry): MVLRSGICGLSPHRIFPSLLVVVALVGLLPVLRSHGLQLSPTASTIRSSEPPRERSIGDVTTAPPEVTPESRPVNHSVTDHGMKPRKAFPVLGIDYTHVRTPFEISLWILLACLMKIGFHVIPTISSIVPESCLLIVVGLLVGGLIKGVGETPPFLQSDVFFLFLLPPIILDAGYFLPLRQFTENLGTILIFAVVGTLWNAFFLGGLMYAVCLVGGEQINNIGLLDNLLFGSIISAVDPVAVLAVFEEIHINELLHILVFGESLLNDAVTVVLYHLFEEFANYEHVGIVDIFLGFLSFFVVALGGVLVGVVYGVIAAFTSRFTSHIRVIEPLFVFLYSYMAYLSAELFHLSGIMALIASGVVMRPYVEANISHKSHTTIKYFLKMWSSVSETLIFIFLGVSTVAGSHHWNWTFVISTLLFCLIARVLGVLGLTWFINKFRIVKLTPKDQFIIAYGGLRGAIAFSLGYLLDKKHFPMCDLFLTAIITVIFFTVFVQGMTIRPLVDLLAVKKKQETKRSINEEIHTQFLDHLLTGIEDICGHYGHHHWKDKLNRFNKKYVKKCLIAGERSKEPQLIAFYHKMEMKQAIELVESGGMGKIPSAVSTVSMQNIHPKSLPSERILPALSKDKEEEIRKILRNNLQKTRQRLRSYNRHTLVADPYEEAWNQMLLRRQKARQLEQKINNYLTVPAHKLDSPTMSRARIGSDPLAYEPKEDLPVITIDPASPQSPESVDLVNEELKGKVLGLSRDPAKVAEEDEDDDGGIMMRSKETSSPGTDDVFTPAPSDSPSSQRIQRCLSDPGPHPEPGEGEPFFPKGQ
# Protocol notes: Inhibition of the Na+/H+ exchanger in human colon cancer cells (HT-29), BCECF fluorescence pH measurement
# Conditions used: HT-29-Zellen; 4 min, 37°C, pH 7.0
// pIC50 here means minus log10 of the molar concentration (mol/L)

Recorded results for 2 compounds are shown here.
* Cc1cccc(C(=O)N2CCN(c3ccc(C(=O)NC(=N)N)cc3C(F)(F)F)CC2)c1 | 7.21
* N=C(N)NC(=O)c1ccc(N2CCN(C(=O)c3cccc(C(F)(F)F)c3)CC2)c(C(F)(F)F)c1 | 7.64

Switching to the query record.
Exercise: Look up pIC50 for this compound: N=C(N)NC(=O)c1ccc(N2CCN(C(=O)c3ccc(F)cc3)CC2)c(C(F)(F)F)c1
Key: 7.42

----------
# Protocol notes: Pharmacokinetics in male rats after i.v. and oral administration
# Format: in vivo, Ratten
# Conditions used: rat, plasma, po, not fasted, 2.5 mg/kg p.o., read-out: t1/2 (p.o.) (converted)
Catalogue of molecules with associated half-life
Kindly answer with a numeric value in h, unit omitted.

- N=C(N)NC(=O)c1ccc(N2CCN(C(=O)c3cccc(C(F)(F)F)c3)CC2)c(C(F)(F)F)c1 [Beispiel 5]: 7.5
- N=C(N)NC(=O)c1ccc(N2CCN(C(=O)c3ccc[nH]3)CC2)c(C(F)(F)F)c1 [Beispiel 2]: 5

Switching to the query record.
Exercise: Look up half-life for this molecule: N=C(N)NC(=O)c1ccc(N2CCN(C(=O)c3ccc(F)cc3)CC2)c(C(F)(F)F)c1 [Beispiel 3]
Key: 5.4

----------
# Protocol notes: Pharmacokinetics in male rats after i.v. and oral administration
# Type: in vivo, Ratten
# Conditions used: rat, plasma, iv, not fasted, 0.5 mg/kg i.v., read-out: t1/2 (i.v.) (converted)
Metric: half-life (h)
Kindly answer with a numeric value in h, unit omitted.

* N=C(N)NC(=O)c1ccc(N2CCN(C(=O)c3ccc(F)cc3)CC2)c(C(F)(F)F)c1 | 3.1
* N=C(N)NC(=O)c1ccc(N2CCN(C(=O)c3cccc(C(F)(F)F)c3)CC2)c(C(F)(F)F)c1 | 5.4

Exercise: Look up half-life for this compound: N=C(N)NC(=O)c1ccc(N2CCN(C(=O)c3ccc[nH]3)CC2)c(C(F)(F)F)c1
Key: 1.3

All figures here come from patent EP1165534B1.
